Hello, the source for this data is ChEMBL document CHEMBL4145545, in case you need it.

# experimental-protocol: Acute toxicity in ip dosed Kunming mouse observed continuously for first 2 hrs, intermittently for next 24 hrs and occasionally thereafter for 14 days
# Assay type: organism-based
# details: in vivo
Please respond with 1 when measured LD50 at 14 days is strictly beneath 50 mg/kg, and with -1 in all other cases.

Take a look at these entries with their results.
[[record]]
smiles_record = "COc1ccc(-c2nccc3c4ccccc4n(CCCCOc4ccc5c6ccnc(C)c6n(CCCc6ccccc6)c5c4)c23)cc1.Cl"
label_class = 1

[[record]]
smiles_record = "COc1ccc2c3ccnc(C)c3n(CCCCOc3ccc4c5ccnc(C)c5n(CCCc5ccccc5)c4c3)c2c1.Cl"
label_class = 1

[[record]]
smiles_record = "Cc1nccc2c3ccc(OCCCCn4c5ccccc5c5ccnc(-c6cccs6)c54)cc3n(CCCc3ccccc3)c12.Cl"
label_class = 1


Turning now to a further record.
Input Cc1nccc2c3ccccc3n(CCCCOc3ccc4c5ccnc(C)c5n(CCCc5ccccc5)c4c3)c12.Cl ; condition: LD50 at 14 days strictly below 50 mg/kg. Does it hold?
-1

----------
# Tested on: HepG2
# experimental-protocol: Cytotoxicity against human HepG2 cells assessed as cell growth inhibition after 24 hrs by MTT assay
# Type: functional, cell-based
# details: HepG2, 24 h
The following compounds are listed with their measured log10(IC50) values.
A value of 2 here means IC50 of 100 in µM, since values are log10.

Sample answers from the record:
[[record]]
smiles_record = "Cc1nccc2c3ccc(OCCCCCCn4c5ccccc5c5ccncc54)cc3n(CCCc3ccccc3)c12"
observed = 1.08

[[record]]
smiles_record = "COc1ccc(-c2nccc3c4ccccc4n(CCCCOc4ccc5c6ccnc(C)c6n(CCCc6ccccc6)c5c4)c23)cc1OC"
observed = 0.38


response.value for COc1ccc2c3ccnc(C)c3n(CCCCOc3ccc4c5ccnc(C)c5n(CCCc5ccccc5)c4c3)c2c1.Cl (field: log10(IC50)) = 0.75

Looking up Cc1nccc2c3ccccc3n(CCCCCCOc3ccc4c5ccnc(C)c5n(CCCc5ccccc5)c4c3)c12 , I see its log10(IC50) listed as 1.15

The reported log10(IC50) of the compound CCn1c2cc(OCCCCCCn3c4ccccc4c4ccnc(C)c43)ccc2c2ccnc(C)c21 was 1.87

Reported log10(IC50) for CCCCn1c2cc(OCCCCCCn3c4ccccc4c4ccncc43)ccc2c2ccnc(C)c21 was 1.71

// log10(IC50) lookup, compound = COc1ccc(-c2nccc3c4ccccc4n(CCCCOc4ccc5c6ccnc(C)c6n(CCCc6ccccc6)c5c4)c23)cc1.Cl , result: 1.15

----------
# Test system: Mus musculus
# experimental-protocol: Neurotoxicity in Kunming mouse assessed as twitch at 5 to 500 mg/kg, ip observed continuously for first 2 hrs, intermittently for next 24 hrs and occasionally thereafter for 14 days
# Format: toxicity, organism-based
# details: in vivo
metric: Activity

Examples with their reported Activity follow.
[[record]]
smiles_record = "Cc1nccc2c3ccc(OCCCCn4c5ccccc5c5ccncc54)cc3n(CCCc3ccccc3)c12.Cl"
metric = "Activity"
observed = "Non-Toxic"

[[record]]
smiles_record = "Cc1nccc2c3ccccc3n(CCCCOc3ccc4c5ccnc(C)c5n(CCCc5ccccc5)c4c3)c12.Cl"
metric = "Activity"
observed = "Non-Toxic"

[[record]]
smiles_record = "COc1ccc2c3ccnc(C)c3n(CCCCOc3ccc4c5ccnc(C)c5n(CCCc5ccccc5)c4c3)c2c1.Cl"
metric = "Activity"
observed = "Toxic"

[[record]]
smiles_record = "COc1ccc(-c2nccc3c4ccccc4n(CCCCOc4ccc5c6ccnc(C)c6n(CCCc6ccccc6)c5c4)c23)cc1.Cl"
metric = "Activity"
observed = "Non-Toxic"

[[record]]
smiles_record = "Cc1nccc2c3ccc(OCCCCn4c5ccccc5c5ccnc(-c6cccs6)c54)cc3n(CCCc3ccccc3)c12.Cl"
metric = "Activity"
observed = "Non-Toxic"


API: the following record is the query input.
According to the records, this compound CCCCn1c2cc(OCCCCn3c4ccccc4c4ccnc(C)c43)ccc2c2ccnc(C)c21.Cl displays Activity of Non-Toxic
